Reported viability at 1.25 µM values follow for various compounds
Test system: HepG-2 cells
test: MTT cytotoxicity assay on HepG-2 cells
Assay type: cell-based, human
test.settings: Homo sapiens, HepG2; HepG-2, 1.25 µM, Table S1

>  <chemical.string>
O=C1Nc2ccc(Br)cc2C1=Nc1ccc2nc[nH]c(=O)c2c1

>  <result.units>
%

>  <viability at 1.25 µM>
91.2

$$$$
>  <chemical.string>
O=C1Nc2ccc(Cl)cc2C1=Nc1ccc(-c2nc3ccccc3c(=O)[nH]2)cc1

>  <result.units>
%

>  <viability at 1.25 µM>
58.2

$$$$
>  <chemical.string>
Cc1ccc2c(c1)C(=Nc1ccc3nc[nH]c(=O)c3c1)C(=O)N2

>  <result.units>
%

>  <viability at 1.25 µM>
96.4

$$$$
>  <chemical.string>
O=C1Nc2ccccc2C1=Nc1ccc(-c2nc3ccccc3c(=O)[nH]2)cc1

>  <result.units>
%

>  <viability at 1.25 µM>
78

$$$$
>  <chemical.string>
O=C1Nc2ccc(Br)cc2C1=Nc1ccc(-c2nc3ccccc3c(=O)[nH]2)cc1

>  <result.units>
%

>  <viability at 1.25 µM>
98.3

$$$$
>  <chemical.string>
COc1ccc2c(c1)C(=Nc1ccc(-c3nc4ccccc4c(=O)[nH]3)cc1)C(=O)N2

>  <result.units>
%

>  <viability at 1.25 µM>
99.4

$$$$
>  <chemical.string>
O=C1Nc2ccc(Cl)cc2C1=Nc1ccc2nc[nH]c(=O)c2c1

>  <result.units>
%

>  <viability at 1.25 µM>
61.3

$$$$
>  <chemical.string>
O=C1Nc2ccc(F)cc2/C1=N/c1ccc2nc[nH]c(=O)c2c1

>  <result.units>
%

>  <viability at 1.25 µM>
88

$$$$
>  <chemical.string>
Cc1ccc2c(c1)C(=Nc1ccc(-c3nc4ccccc4c(=O)[nH]3)cc1)C(=O)N2

>  <result.units>
%

>  <viability at 1.25 µM>
81.5

$$$$
>  <chemical.string>
O=C1Nc2ccccc2C1=Nc1ccc2nc[nH]c(=O)c2c1

>  <result.units>
%

>  <viability at 1.25 µM>
83.4

$$$$
>  <chemical.string>
O=C1Nc2ccc([N+](=O)[O-])cc2C1=Nc1ccc2nc[nH]c(=O)c2c1

>  <result.units>
%

>  <viability at 1.25 µM>
99.2

$$$$
>  <chemical.string>
O=C1Nc2ccc(F)cc2/C1=N/c1ccc(-c2nc3ccccc3c(=O)[nH]2)cc1

>  <result.units>
%

>  <viability at 1.25 µM>
68.4

$$$$
>  <chemical.string>
O=C1Nc2ccc([N+](=O)[O-])cc2C1=Nc1ccc(-c2nc3ccccc3c(=O)[nH]2)cc1

>  <result.units>
%

>  <viability at 1.25 µM>
79.2

$$$$
>  <chemical.string>
COc1ccc2c(c1)C(=Nc1ccc3nc[nH]c(=O)c3c1)C(=O)N2

>  <result.units>
%

>  <viability at 1.25 µM>
88.2

$$$$

---

Test system: HepG-2 cells
test: MTT cytotoxicity assay on HepG-2 cells
Assay type: cell-based, human
test.settings: Homo sapiens, HepG2; HepG-2, 2.5 µM, Table S1
Reported viability at 2.5 µM values follow for various compounds

>  <compound>
O=C1Nc2ccccc2C1=Nc1ccc2nc[nH]c(=O)c2c1 [Compound 7]

>  <tested.system>
HepG-2 cells

>  <viability at 2.5 µM, %>
70.9

$$$$
>  <compound>
O=C1Nc2ccc(Br)cc2C1=Nc1ccc(-c2nc3ccccc3c(=O)[nH]2)cc1 [Compound 21]

>  <tested.system>
HepG-2 cells

>  <viability at 2.5 µM, %>
82.5

$$$$
>  <compound>
COc1ccc2c(c1)C(=Nc1ccc(-c3nc4ccccc4c(=O)[nH]3)cc1)C(=O)N2 [Compound 24]

>  <tested.system>
HepG-2 cells

>  <viability at 2.5 µM, %>
95.5

$$$$
>  <compound>
O=C1Nc2ccc(F)cc2/C1=N/c1ccc(-c2nc3ccccc3c(=O)[nH]2)cc1 [Compound 19]

>  <tested.system>
HepG-2 cells

>  <viability at 2.5 µM, %>
75

$$$$
>  <compound>
COc1ccc2c(c1)C(=Nc1ccc3nc[nH]c(=O)c3c1)C(=O)N2 [Compound 13]

>  <tested.system>
HepG-2 cells

>  <viability at 2.5 µM, %>
86.5

$$$$
>  <compound>
Cc1ccc2c(c1)C(=Nc1ccc3nc[nH]c(=O)c3c1)C(=O)N2 [Compound 12]

>  <tested.system>
HepG-2 cells

>  <viability at 2.5 µM, %>
84.9

$$$$
>  <compound>
O=C1Nc2ccc(Br)cc2C1=Nc1ccc2nc[nH]c(=O)c2c1 [Compound 10]

>  <tested.system>
HepG-2 cells

>  <viability at 2.5 µM, %>
87.9

$$$$
>  <compound>
O=C1Nc2ccc(Cl)cc2C1=Nc1ccc(-c2nc3ccccc3c(=O)[nH]2)cc1 [Compound 20]

>  <tested.system>
HepG-2 cells

>  <viability at 2.5 µM, %>
52.1

$$$$
>  <compound>
O=C1Nc2ccc(Cl)cc2C1=Nc1ccc2nc[nH]c(=O)c2c1 [Compound 9]

>  <tested.system>
HepG-2 cells

>  <viability at 2.5 µM, %>
54.4

$$$$
